Kindly supply the reported Activity values for the records listed here.
# System: HUVEC
# test-details: Cytotoxicity against HUVEC cells at 10 uM incubated for 24 to 48 hrs by Celltiter-Glo assay relative to control
# Type: cell-based
# assay-setup: human, time 24-48 hrs

# annotated cases, reported Activity shown
>>> recorded_measurement("O=C(Nc1ccc(Cl)c(Cl)c1)C1=Cc2ccccc2OC1")
"64.4%"
>>> recorded_measurement("O=C(Nc1cccc(Cl)c1)c1coc2ccccc2c1=O")
"< 10%"
>>> recorded_measurement("O=C(Nc1cccc(Cl)c1)c1csc2ccccc2c1=O")
"< 10%"

Then this compound:
Exam item: Report Activity for Cc1ccc(NC(=O)c2coc3ccccc3c2=O)cc1C please.
Marked response: < 10%

* * *

# measured-on: Amine oxidase [flavin-containing] B (Homo sapiens)
# test-details: Inhibition of recombinant human MAO-B expressed in baculovirus infected BTI-TN- 5B1-4 insect cells at 10 uM using kynuramine as substrate preincubated for 10 mins in presence of substrate followed by enzyme addition and measured every minute for 30 mins by spectrophotometry analysis relative to control
# assay-setup: BTI-TN-5B1-4, human, 0.5 h, time 40 min
measurement-label: inhibition at 10 µM (%)
One number for each entry, in %.

>>> recorded_measurement("O=C(Nc1cccc(Cl)c1)c1cc2ccccc2[nH]c1=O")
8.9
>>> recorded_measurement("Cc1ccc(NC(=O)c2cc3ccccc3n(C)c2=O)cc1C")
21
>>> recorded_measurement("Cc1ccc(NC(=O)c2cc3ccccc3[nH]c2=O)cc1C")
8.1

Exam item: For the record COc1ccc(NC(=O)C2COc3ccccc3C2)cc1OC (centres undefined) , what value of inhibition at 10 µM is listed for Amine oxidase [flavin-containing] B (Homo sapiens)?
Marked response: 14

* * *

# measured-on: ATP-dependent translocase ABCB1 (Homo sapiens, UniProt P08183)
# Sequence (P08183 whole entry): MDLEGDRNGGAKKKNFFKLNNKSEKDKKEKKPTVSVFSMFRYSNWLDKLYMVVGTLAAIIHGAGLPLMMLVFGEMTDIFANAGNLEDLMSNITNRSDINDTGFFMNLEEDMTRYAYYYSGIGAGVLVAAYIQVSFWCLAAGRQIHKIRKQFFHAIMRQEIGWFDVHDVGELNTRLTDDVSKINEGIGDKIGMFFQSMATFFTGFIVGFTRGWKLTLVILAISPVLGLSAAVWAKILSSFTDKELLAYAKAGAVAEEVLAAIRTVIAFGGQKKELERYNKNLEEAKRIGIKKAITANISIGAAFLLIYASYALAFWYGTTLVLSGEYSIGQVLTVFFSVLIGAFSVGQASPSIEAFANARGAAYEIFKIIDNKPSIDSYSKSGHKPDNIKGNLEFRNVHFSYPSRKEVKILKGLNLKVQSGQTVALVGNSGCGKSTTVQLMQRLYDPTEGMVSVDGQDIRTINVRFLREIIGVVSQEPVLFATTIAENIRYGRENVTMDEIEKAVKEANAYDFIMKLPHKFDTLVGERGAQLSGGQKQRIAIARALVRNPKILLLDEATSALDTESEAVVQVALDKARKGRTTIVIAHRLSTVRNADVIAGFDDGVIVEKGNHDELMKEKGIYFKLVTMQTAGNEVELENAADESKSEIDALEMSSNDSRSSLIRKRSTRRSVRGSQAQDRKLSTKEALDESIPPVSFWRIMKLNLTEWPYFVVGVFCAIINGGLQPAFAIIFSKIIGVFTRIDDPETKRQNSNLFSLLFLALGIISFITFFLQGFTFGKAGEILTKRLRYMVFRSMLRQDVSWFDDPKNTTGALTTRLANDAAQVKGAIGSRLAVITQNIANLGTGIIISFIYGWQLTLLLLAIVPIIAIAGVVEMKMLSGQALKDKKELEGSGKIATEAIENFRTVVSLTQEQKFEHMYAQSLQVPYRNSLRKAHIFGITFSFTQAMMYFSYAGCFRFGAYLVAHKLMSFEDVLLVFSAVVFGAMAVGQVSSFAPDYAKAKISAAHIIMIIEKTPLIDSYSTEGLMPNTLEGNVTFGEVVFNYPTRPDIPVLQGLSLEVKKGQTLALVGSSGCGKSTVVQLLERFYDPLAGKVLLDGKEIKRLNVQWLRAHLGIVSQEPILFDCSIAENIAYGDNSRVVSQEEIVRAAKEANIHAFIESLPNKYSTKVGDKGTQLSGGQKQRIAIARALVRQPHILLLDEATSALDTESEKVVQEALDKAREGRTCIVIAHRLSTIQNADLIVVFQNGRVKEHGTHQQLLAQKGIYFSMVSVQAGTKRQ
# test-details: Modulation of P-gp-mediated Rhodamine-123 efflux in human Caco-2 cells assessed as Rhodamine-123 accumulation at 10 uM pretreated for 30 mins in presence or absence of Zos followed by Rho-123 addition and measured after 90 mins by fluorescence spectroscopy
# Assay type: cell-based
# assay-setup: caco-2, 2 h, time 120 min
measurement-label: Activity

>>> recorded_measurement("O=C(Nc1ccc(Cl)c(Cl)c1)C1=Cc2ccccc2OC1")
"Not Active"
>>> recorded_measurement("O=C(Nc1cccc(Cl)c1)c1csc2ccccc2c1=O")
"Not Active"
>>> recorded_measurement("O=C(Nc1cccc(Cl)c1)c1coc2ccccc2c1=O")
"Not Active"
>>> recorded_measurement("Cc1ccc(NC(=O)c2coc3ccccc3c2=O)cc1C")
"Not Active"

* * *

# test-details: Solubility of the compound in phosphate buffer at > 10 uM
# Format: physicochemical
measurement-label: solubility

# annotated cases, reported solubility shown
>>> recorded_measurement("O=C(Nc1ccc(Cl)c(Cl)c1)c1cc2ccccc2[nH]c1=O")
"Insoluble"
>>> recorded_measurement("COc1ccc(NC(=O)c2cc3ccccc3oc2=O)cc1OC")
"Insoluble"
>>> recorded_measurement("Cn1c(=O)c(C(=O)Nc2ccc(Cl)c(Cl)c2)cc2ccccc21")
"Insoluble"
>>> recorded_measurement("Cn1c(=O)c(C(=O)Nc2cccc(Cl)c2)cc2ccccc21")
"Insoluble"

Exam item: Report solubility for O=C(Nc1ccc(Cl)c(Cl)c1)c1cc2ccccc2oc1=O please.
Marked response: Insoluble

* * *

Kindly supply the reported inhibition at 0.5 h, 10 µM values for the records listed here.
# measured-on: MAO-A (Homo sapiens)
# test-details: Inhibition of recombinant human MAO-A expressed in baculovirus infected BTI-TN- 5B1-4 insect cells at 10 uM using kynuramine as substrate preincubated for 10 mins in presence of substrate followed by enzyme addition and measured every minute for 30 mins by spectrophotometry analysis relative to control
# assay-setup: probe kynuramine, time 40 min
Numbers only, in %.

# annotated cases, reported inhibition at 0.5 h, 10 µM shown
>>> recorded_measurement("Cc1ccc(NC(=O)c2csc3ccccc3c2=O)cc1C")
0.2
>>> recorded_measurement("Cc1ccc(NC(=O)c2cc3ccccc3oc2=O)cc1C")
26.8
>>> recorded_measurement("O=C(Nc1cccc(Cl)c1)c1csc2ccccc2c1=O")
0.7
>>> recorded_measurement("C[C@H](NCc1ccc(OCc2cccc(F)c2)cc1)C(N)=O [SAFINAMIDE]")
30.5
>>> recorded_measurement("O=C(Nc1cccc(Cl)c1)C1COc2ccccc2C1 (stereo not drawn)")
10.9

Please go through the list and note inhibition at 0.5 h, 10 µM for each compound.
1. Cc1ccc(NC(=O)C2COc3ccccc3C2)cc1C (stereo not drawn)
2. O=C(Nc1ccc(Cl)c(Cl)c1)C1COc2ccccc2C1 (stereo not drawn)

Marked response:
[19.6, 16.4]

* * *

# Test system: SH-SY5Y
# test-details: Cytotoxicity against human SH-SY5Y cells assessed as reduction in cell viability at 10 uM measured after 24 hrs by MTT assay relative to control
# Format: cell-based
measurement-label: Activity

# annotated cases, reported Activity shown
>>> recorded_measurement("Cc1ccc(NC(=O)c2cc3ccccc3oc2=O)cc1C")
"< 85%"
>>> recorded_measurement("Cc1ccc(NC(=O)c2coc3ccccc3c2=O)cc1C")
"< 85%"

Please go through the list and note Activity for each molecule.
1. O=C(Nc1cccc(Cl)c1)c1cc2ccccc2oc1=O
2. O=C(Nc1cccc(Cl)c1)c1coc2ccccc2c1=O

Marked response:
1. 71.8%
2. < 85%

* * *

# measured-on: Amine oxidase [flavin-containing] A (Homo sapiens, UniProt P21397)
# Sequence (P21397 whole entry): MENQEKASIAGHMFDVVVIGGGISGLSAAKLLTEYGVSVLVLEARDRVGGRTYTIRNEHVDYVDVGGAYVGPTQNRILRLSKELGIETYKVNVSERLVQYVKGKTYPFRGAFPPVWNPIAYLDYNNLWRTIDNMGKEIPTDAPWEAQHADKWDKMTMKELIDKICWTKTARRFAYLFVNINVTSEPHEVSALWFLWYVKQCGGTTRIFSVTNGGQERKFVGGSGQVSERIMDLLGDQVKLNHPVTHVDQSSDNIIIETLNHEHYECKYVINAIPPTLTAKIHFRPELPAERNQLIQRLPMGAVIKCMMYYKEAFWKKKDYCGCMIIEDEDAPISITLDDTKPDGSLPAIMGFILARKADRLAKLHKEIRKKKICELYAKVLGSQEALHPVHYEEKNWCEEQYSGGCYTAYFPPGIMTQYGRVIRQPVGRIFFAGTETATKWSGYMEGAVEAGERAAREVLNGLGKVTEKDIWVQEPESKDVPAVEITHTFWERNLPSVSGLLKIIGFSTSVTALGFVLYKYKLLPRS
# test-details: Inhibition of recombinant human MAO-A expressed in baculovirus infected BTI-TN- 5B1-4 insect cells using kynuramine as substrate preincubated for 10 mins in presence of substrate followed by enzyme addition and measured every minute for 30 mins by spectrophotometry analysis
Kindly supply the reported pIC50 values for the records listed here.
Answers are plain numbers, as −log10 of the molar value.

Please go through the list and note pIC50 for each compound.
1. O=C(Nc1cccc(Cl)c1)C1=Cc2ccccc2OC1
2. O=C(Nc1ccc(Cl)c(Cl)c1)C1=Cc2ccccc2OC1
3. Cc1ccc(NC(=O)C2=Cc3ccccc3OC2)cc1C

Marked response:
1. 4.93
2. 5.38
3. 4.86

* * *

# measured-on: Amine oxidase [flavin-containing] B (Homo sapiens, UniProt P27338)
# Sequence (P27338 whole entry): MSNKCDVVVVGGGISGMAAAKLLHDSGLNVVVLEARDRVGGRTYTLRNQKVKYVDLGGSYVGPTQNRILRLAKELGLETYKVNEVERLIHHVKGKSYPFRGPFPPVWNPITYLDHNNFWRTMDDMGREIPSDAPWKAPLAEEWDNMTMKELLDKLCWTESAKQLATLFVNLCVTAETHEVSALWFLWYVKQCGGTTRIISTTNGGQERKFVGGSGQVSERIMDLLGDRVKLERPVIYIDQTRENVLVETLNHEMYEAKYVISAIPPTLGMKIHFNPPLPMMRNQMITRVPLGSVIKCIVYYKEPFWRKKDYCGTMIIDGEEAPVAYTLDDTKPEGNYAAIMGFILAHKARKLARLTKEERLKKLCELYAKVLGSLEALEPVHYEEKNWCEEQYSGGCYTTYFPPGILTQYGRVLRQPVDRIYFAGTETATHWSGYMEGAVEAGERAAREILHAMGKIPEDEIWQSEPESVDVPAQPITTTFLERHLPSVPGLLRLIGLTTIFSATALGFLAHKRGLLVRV
# test-details: Inhibition of recombinant human MAO-B expressed in baculovirus infected BTI-TN- 5B1-4 insect cells using kynuramine as substrate preincubated for 10 mins in presence of substrate followed by enzyme addition and measured every minute for 30 mins by spectrophotometry analysis
Kindly supply the reported log10 IC50 values for the records listed here.
Give log10 of IC50, with IC50 taken in nM.

Please go through the list and note log10 IC50 for each compound.
1. Cc1ccc(NC(=O)c2csc3ccccc3c2=O)cc1C
2. COc1ccc(NC(=O)C2=Cc3ccccc3OC2)cc1OC
3. Cc1ccc(NC(=O)C2COc3ccccc3C2)cc1C (stereo not given)
4. O=C(Nc1cccc(Cl)c1)c1cc2ccccc2oc1=O
5. O=C(Nc1ccc(Cl)c(Cl)c1)C1=Cc2ccccc2OC1
6. Cc1ccc(NC(=O)C2=Cc3ccccc3OC2)cc1C
7. O=C(Nc1cccc(Cl)c1)C1COc2ccccc2C1 (stereo not given)

Marked response:
[0.53, 3.46, 3.25, 1.01, 0.50, 1.66, 2.98]

* * *

# measured-on: MAO-A (Homo sapiens)
# test-details: Inhibition of recombinant human MAO-A expressed in baculovirus infected BTI-TN- 5B1-4 insect cells at 10 uM using kynuramine as substrate preincubated for 10 mins in presence of substrate followed by enzyme addition and measured every minute for 30 mins by spectrophotometry analysis relative to control
# assay-setup: probe kynuramine, time 40 min
measurement-label: inhibition at 0.5 h, 10 µM (%)
Numbers only, in %.

# annotated cases, reported inhibition at 0.5 h, 10 µM shown
>>> recorded_measurement("Cc1ccc(NC(=O)c2cc3ccccc3n(C)c2=O)cc1C")
7.65
>>> recorded_measurement("O=C(Nc1cccc(Cl)c1)c1cc2ccccc2oc1=O")
13.5
>>> recorded_measurement("Cc1ccc(NC(=O)c2cc3ccccc3[nH]c2=O)cc1C")
1.32
>>> recorded_measurement("COc1ccc(NC(=O)C2=Cc3ccccc3OC2)cc1OC")
20.2
>>> recorded_measurement("COc1ccc(NC(=O)C2COc3ccccc3C2)cc1OC (stereo unspecified)")
11.8

Exam item: Report inhibition at 0.5 h, 10 µM for O=C(Nc1cccc(Cl)c1)c1cc2ccccc2[nH]c1=O please.
Marked response: 2.65
